- Assay Name: NCI Yeast Anticancer Drug Screen. Data for the sgs1 strain (AID 173);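 note: 0% = growth of vehicle-only control cultures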
- Condition Notes: S. cerevisiae sgs1 mutant, at 1.2 µM, hits give high values
The panel holds about 79,000 compounds, 15% with a hit somewhere; the sample as a whole holds those more often.
Task for the reader: assign each of the following compounds its reported growth inhibition.
Answers are plain numbers, in %.

Recorded growth inhibition, per entry:
N#C/C(=C/c1c(Cl)cccc1Cl)C(N)=O: 15
CC(=O)[C@]1(O)Cc2c(O)c3c(c(O)c2[C@@H](OC2CC(N)C(O)C(C)O2)C1)C(=O)c1c(OCc2ccccc2)cccc1C3=O (some centres undefined): 8
O=C1OC2C(O)COC2(OCc2c[nH]c3ccccc23)C1O (centres undefined) (tested in a mixture with another compound): -1
O=S(=O)(N/N=C/c1cccc(Cl)c1)c1ccccc1: 1

// for each compound below, give its growth inhibition
1. COc1ccc(C(C#N)=C2C=CC(=NO)C=C2)cc1
2. CCCCCCCCCCCCCCCCCCNC(=S)/N=C\C1=C(O)c2ccccc2C1=O

Ans.
1: 5; 2: 0

###

- Assay Name: NCI Yeast Anticancer Drug Screen. Data for the rad50EPP+ strain (AID 151);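 note: 0% = growth of vehicle-treated control cultures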
- Condition Notes: S. cerevisiae rad50 mutant strain, at 11.0 µM
The panel holds about 79,000 compounds, 15% with a hit somewhere; the sample as a whole holds those more often. The source made the active and inactive calls. Cut-off read from the data, not from the text of the source: active = growth inhibition above about 70%; inactive = the rest.
Output constraint: value belongs to active, inactive

Before answering, review these 5 worked examples.
COc1ccc(/C=C(\NC(=O)c2ccccc2)C(=O)NN(C)c2ccnc3cc(Cl)ccc23)cc1OC: active
COc1ccc2c(c1)[nH]c1c(/C=C/c3ccccc3)nccc12: inactive
Cc1ccc(N=Nc2ccc(O)c(C)c2)cc1: inactive
NCc1c(O)ccc2ccccc12: inactive
O=NN(CCCl)C(=O)NCCCl: inactive

Qu. What call does the record list for CCC(=O)N(c1ccccc1)C(C)CN1CCC(O)(c2cccc(C(F)(F)F)c2)CC1 (stereo not given) ?
Ans. inactive

Qu. Identify the outcome logged in this assay for the compound shown: O=C1C=CC(=Nc2ccccc2)c2ccccc21
Ans. inactive

Qu. Can you look up the reported call for O=[N+]([O-])c1cc(S(=O)(=O)Nc2ccccc2)ccc1Cl for me?
Ans. inactive

Qu. Record lookup: outcome of this test for O=C1C(Cl)=C(Cl)C(Cl)(Cl)C(Cl)C1(Cl)Cl (stereo not given) ?
Ans. inactive

Qu. Status in this test for CCCCCCCCCCCCCCCCCCNC(=S)/N=C\C1=C(O)c2ccccc2C1=O ?
Ans. inactive

Qu. Look up the recorded call for CCCCCCCCCCCCCCCCNC(=O)/C(=C\c1ccc(Cl)c(Cl)c1)NC(=O)c1ccccc1 in this test.
Ans. inactive

Qu. Each compound tested received a call. Report the one for Oc1ccccc1N=Cc1ccc(Cl)cc1 .
Ans. inactive

Qu. Can you look up the reported call for C=C(C)[C@@H]1CCc2c(O)c(O)c(=O)cc(C)c2C1 for me?
Ans. inactive

Qu. Returns: the outcome recorded for Cc1cc(C(C)(C)CC(C)(C)C)cc(O)c1O in this assay.
Ans. active

Qu. Per the assay record, what outcome was assigned to COc1cc(/C=C/c2sc3ccccc3[n+]2C)ccc1N(C)C ?
Ans. inactive

Qu. Record request — test call for O=c1ccc(N=Nc2ccccc2)ccc1O
Ans. active

Qu. Hello, I am checking results. What call was entered for CC(C)c1[nH]nc(C(N)=O)c1N=NN(C)C ?
Ans. inactive
